# ASSAYED SYSTEM: T1, nSR100 (Mus musculus, UniProt Q8BKA3)
# T1 construct: host or cells: mouse N2A cells
# T1 sequence (Q8BKA3 1-608): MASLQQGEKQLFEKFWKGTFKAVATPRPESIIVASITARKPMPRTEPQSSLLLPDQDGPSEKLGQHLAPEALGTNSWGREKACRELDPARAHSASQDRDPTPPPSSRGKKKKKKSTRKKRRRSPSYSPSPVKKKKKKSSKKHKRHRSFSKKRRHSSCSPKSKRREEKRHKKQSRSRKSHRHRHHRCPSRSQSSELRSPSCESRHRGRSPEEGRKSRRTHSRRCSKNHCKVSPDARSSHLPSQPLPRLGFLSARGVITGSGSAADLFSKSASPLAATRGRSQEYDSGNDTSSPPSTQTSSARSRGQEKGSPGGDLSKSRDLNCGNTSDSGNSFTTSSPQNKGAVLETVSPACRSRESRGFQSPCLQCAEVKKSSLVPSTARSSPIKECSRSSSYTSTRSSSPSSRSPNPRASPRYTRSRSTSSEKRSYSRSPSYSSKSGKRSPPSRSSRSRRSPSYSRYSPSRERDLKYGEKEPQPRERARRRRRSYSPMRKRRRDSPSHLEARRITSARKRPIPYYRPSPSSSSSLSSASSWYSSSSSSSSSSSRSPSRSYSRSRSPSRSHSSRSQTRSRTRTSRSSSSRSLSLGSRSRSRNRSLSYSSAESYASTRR
# MEASUREMENT PROTOCOL: AP-MS nSR100 interaction partners from mouse N2A cells (Table 5)
# Type: binding
# TEST SETTINGS: bait Srrm4, biological replicate 2 (second number of the cell), AP-MS
QUANTITY MEASURED: Spectra (number of spectra for the prey in the purification of the bait)

>  <MOLECULE>
Sap18 (protein, UniProt O55128 2-153, looked up) Histone deacetylase complex …: AVESRVTQEEIKKEPEKPIDREKTCPLLLRVFTTNNGRHHRMDEFSRGNVPSSELQIYTWMDATLKELTSLVKEVYPEARKKGTHFNFAIVFMDLKRPGYRVKEIGSTMSGRKGTDDSMTLQSQKFQIGDYLDIAITPPNRAPPSSGRMRPY

>  <RESULT NUMBER>
28

$$$$
>  <MOLECULE>
Fam76b (protein, UniProt Q80XP8 2-339, looked up) Protein FAM76B: AASALYACTKCTQRYPFEELSQGQQLCKECRIAHPIVKCTYCRSEFQQESKTNTICKKCAQNVKQFGTPKPCQYCNIIAAFIGTKCQRCTNSEKKYGAPQTCEQCKQQCAFDRKEEGRRKVDGKLLCWLCTLSYKRVLQKTKEQRKSLGSSHSNSSSSSLTEKDQHHSKHHHHHHHHHHRHSSGHHKVSSLSPEQEQGLWKQSHKSSAAIQNETPKKKPKLESKPSNGDSSSINQSADSGGTDNFVLISQLKEEVMSLKRLLQQRDQTILEKDKKLTELKADFQYQESNLRTKMNSMEKAHKETVEQLQAKNRELLKQVAALSKGKKFDKSGSVLTSP

>  <RESULT NUMBER>
5

$$$$
>  <MOLECULE>
Necap1 (protein, UniProt Q9CR95 1-275, looked up) Adaptin ear-binding …: MAAELEYESVLCVKPDVSVYRIPPRASNRGYRASDWKLDQPDWTGRLRITSKGKIAYIKLEDKVSGELFAQAPVEQYPGIAVETVTDSSRYFVIRIQDGTGRSAFIGIGFTDRGDAFDFNVSLQDHFKWVKQETEISKESQEMDNRPKLDLGFKEGQTIKLSIGNITAKKGGASKPRASGTGGLSLLPPPPGGKVTIPPPSSSVAISNHVTPPPIPKSNHGGNDSDILLDLDSPAPVSTSAPAPVSTSNDLWGDFSTASSSVPNQAPQPSNWVQF

>  <RESULT NUMBER>
13

$$$$
>  <MOLECULE>
Luc7l2 (protein, UniProt Q7TNC4 1-392, looked up) Putative RNA-binding protein …: MSAQAQMRAMLDQLMGTSRDGDTTRQRIKFSDDRVCKSHLLNCCPHDVLSGTRMDLGECLKVHDLALRADYEIASKEQDFFFELDAMDHLQSFIADCDRRTEVSKKRLAETQEEISAEVAAKAERVHELNEEIGKLLAKVEQLGAEGNVEESQKVMDEVEKARAKKREAEEVYRNSMPASSFQQQKLRVCEVCSAYLGLHDNDRRLADHFGGKLHLGFIEIREKLEELKRVVAEKQEKRNQERLKRREEREREEREKLRRSRSHSKNPKRSRSREHRRHRSRSMSRERKRRTRSKSREKRHRHRSRSSSRSRSRSHQRSRHSSRDRSRERSKRRSSKERFRDQDLASRDRDRSSRDRSPRDRDRKDKKRSYESANGRSEDRRSSEEREAGEI

>  <RESULT NUMBER>
43

$$$$
>  <MOLECULE>
Cdc37 (protein, UniProt Q61081 1-379, looked up) Hsp90 co-chaperone Cdc37: MVDYSVWDHIEVSDDEDETHPNIDTASLFRWRHQARVERMEQFQKEKEELDRGCRECKRKVAECQRKLKELEVAESDGQVELERLRAEAQQLRKEERSWEQKLEDMRKKEKNMPWNVDTLSKDGFSKSMVNTKPEKAEEDSEEAREQKHKTFVEKYEKQIKHFGMLHRWDDSQKYLSDNVHLVCEETANYLVIWCIDLEVEEKCALMEQVAHQTMVMQFILELAKSLKVDPRACFRQFFTKIKTADHQYMEGFKYELEAFKERVRGRAKLRIEKAMKEYEEEERKKRLGPGGLDPVEVYESLPEELQKCFDVKDVQMLQDAISKMDPTDAKYHMQRCIDSGLWVPNSKSGEAKEGEEAGPGDPLLEAVPKAGNEKDVSA

>  <RESULT NUMBER>
48

$$$$
>  <MOLECULE>
Csnk2a1 (protein, UniProt Q60737 1-391, looked up) Casein kinase II subunit alpha: MSGPVPSRARVYTDVNTHRPREYWDYESHVVEWGNQDDYQLVRKLGRGKYSEVFEAINITNNEKVVVKILKPVKKKKIKREIKILENLRGGPNIITLADIVKDPVSRTPALVFEHVNNTDFKQLYQTLTDYDIRFYMYEILKALDYCHSMGIMHRDVKPHNVMIDHEHRKLRLIDWGLAEFYHPGQEYNVRVASRYFKGPELLVDYQMYDYSLDMWSLGCMLASMIFRKEPFFHGHDNYDQLVRIAKVLGTEDLYDYIDKYNIELDPRFNDILGRHSRKRWERFVHSENQHLVSPEALDFLDKLLRYDHQSRLTAREAMEHPYFYTVVKDQARMSSTSMAGGSTPVSSANMMSGISSVPTPSPLGPLAGSPVIAAANSLGIPVPAAAGAQQ

>  <RESULT NUMBER>
55

$$$$
